# Tested on: Enterococcus sp.
# procedure-summary: in vitro antibacterial evaluation, MIC by broth dilution
# Type: cell-based
# measurement-parameters: Enterococcus faecalis (ATCC 29212); broth dilution, 18 hours at 35° C.
value-type: MIC Enterococcus faecalis (ATCC 29212) (µg/mL)
Give bare numbers, in µg/mL.

Task: Query (molecule): CC(=O)OCC1OC(OC2C(CO)OC(Oc3ccc(CC4NC(=O)C(C(C)c5ccccc5)NC(=O)CNC(=O)C(CO)NC(=O)C(C(O)C5CNC(=N)N5C5OC(CO)C(O)C(O)C5O)NC(=O)C(C(O)C5CNC(=N)N5)NC4=O)cc3)C(O)C2O)C(O)C(OC(=O)CCC(C)C)C1O (centres unmarked) [Example 270b] ; field requested: MIC Enterococcus faecalis (ATCC 29212)
Output: 32
